Target: EGFR Δ746-750 mutant (Homo sapiens (Human), UniProt P00533, DEL746-750)
Sequence (P00533 other isoform, or with tags, fused parts or gaps del 1-668/del 746-750 limits assumed): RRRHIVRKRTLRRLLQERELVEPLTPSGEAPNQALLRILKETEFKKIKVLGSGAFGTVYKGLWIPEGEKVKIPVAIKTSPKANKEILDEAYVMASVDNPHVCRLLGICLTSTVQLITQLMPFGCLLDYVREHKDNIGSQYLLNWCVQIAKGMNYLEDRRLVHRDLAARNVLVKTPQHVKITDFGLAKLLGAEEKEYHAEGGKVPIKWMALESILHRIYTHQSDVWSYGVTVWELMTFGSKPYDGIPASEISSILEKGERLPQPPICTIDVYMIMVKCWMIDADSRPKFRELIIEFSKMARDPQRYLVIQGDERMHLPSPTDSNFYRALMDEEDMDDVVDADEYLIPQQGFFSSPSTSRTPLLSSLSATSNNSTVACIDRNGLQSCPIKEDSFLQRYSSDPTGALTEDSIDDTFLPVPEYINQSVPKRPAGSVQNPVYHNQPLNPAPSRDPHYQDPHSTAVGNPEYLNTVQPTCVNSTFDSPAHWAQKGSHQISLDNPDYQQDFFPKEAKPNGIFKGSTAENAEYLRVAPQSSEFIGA
Assay: HotSpot radiometric kinase assay, EGFR Δ746-750 mutant
Details: 10 μM ATP
pIC50: −log10 of the molar value.
Readout Kind: pIC50

// below: answered compounds
CCOc1nn([C@@H](C)CO)c2c1/C=C/c1n[nH]c3ccc(cc13)-c1cnn(C)c1O[C@@H](C)CN(C)C2 [Example 155] ... 9.21
Cc1nn(C)c2c1/C=C/c1n[nH]c3ccc(cc13)-c1cnn(C)c1OCCCO2 [Ex. 8] ... 7.35

[1] C[C@H]1CN(C)Cc2c(c(OC3CN(S(C)(=O)=O)C3)nn2C)/C=C/c2n[nH]c3ccc(cc23)-c2cnn(C)c2O1 [Example 150]
[2] CC(C)Oc1nn(CCO)c2c1/C=C/c1n[nH]c3ccc(cc13)-c1cnn(C)c1O[C@@H](C)[C@H]1CCCN1C2 [Example 252]
[3] Cc1onc2c1/C=C/c1n[nH]c3ccc(cc13)-c1cnn(C)c1O[C@@H](C)CN(C)C2 [Example 134]
[4] Cc1nn(C)c2c1/C=C/c1n[nH]c3ccc(cc13)-c1cnn(C)c1CN(C)CCO2 [Example 55]
[5] Cc1c2c(nn1CCN1CCN(C)CC1)CN(C)C[C@H](C)Oc1c(cnn1C)-c1ccc3[nH]nc(c3c1)/C=C/2 [Example 90]
Enquiry: Rank the 5 compounds: largest pIC50 first, smallest last. Reply format: the labels, ordered as requested.
Return: 2, 1, 5, 4, 3

###

Molecular target: EGFR L858R mutant (Homo sapiens (Human), UniProt P00533, L858R)
Sequence (P00533 25-1210 L858R): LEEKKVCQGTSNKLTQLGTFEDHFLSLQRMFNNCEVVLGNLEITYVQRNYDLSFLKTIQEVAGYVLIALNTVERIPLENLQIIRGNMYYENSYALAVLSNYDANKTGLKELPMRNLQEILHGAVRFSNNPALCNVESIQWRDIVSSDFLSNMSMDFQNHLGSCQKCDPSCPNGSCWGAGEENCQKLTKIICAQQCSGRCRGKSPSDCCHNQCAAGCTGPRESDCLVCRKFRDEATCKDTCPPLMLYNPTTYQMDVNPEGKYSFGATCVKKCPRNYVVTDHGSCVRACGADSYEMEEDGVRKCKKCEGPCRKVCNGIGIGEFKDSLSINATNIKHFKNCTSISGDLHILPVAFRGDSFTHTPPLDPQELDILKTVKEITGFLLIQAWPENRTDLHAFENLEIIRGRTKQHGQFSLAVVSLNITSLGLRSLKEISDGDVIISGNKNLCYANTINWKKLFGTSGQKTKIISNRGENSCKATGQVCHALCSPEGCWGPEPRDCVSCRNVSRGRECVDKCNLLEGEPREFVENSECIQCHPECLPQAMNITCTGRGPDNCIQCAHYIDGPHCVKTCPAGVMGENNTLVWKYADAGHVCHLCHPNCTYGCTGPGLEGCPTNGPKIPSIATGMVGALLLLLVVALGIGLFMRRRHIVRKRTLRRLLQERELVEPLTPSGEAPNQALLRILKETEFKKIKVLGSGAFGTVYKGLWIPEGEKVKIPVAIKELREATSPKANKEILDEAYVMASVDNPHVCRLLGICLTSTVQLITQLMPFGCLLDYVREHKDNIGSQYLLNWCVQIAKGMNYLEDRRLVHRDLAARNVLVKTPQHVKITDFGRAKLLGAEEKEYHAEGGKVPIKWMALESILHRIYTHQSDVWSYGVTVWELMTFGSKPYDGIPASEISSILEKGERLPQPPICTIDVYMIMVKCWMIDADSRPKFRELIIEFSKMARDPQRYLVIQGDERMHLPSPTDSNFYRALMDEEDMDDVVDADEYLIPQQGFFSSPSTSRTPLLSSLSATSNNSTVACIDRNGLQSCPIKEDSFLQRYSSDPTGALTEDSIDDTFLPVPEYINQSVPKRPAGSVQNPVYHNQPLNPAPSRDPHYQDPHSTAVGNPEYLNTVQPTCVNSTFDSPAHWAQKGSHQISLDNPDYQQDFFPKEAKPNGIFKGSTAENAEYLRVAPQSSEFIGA
Assay: HotSpot radiometric kinase assay, EGFR L858R mutant
Conditions: 10 μM ATP
Readout Kind: IC50 (nM)

// below: answered molecules
CCc1noc2c1/C=C/c1n[nH]c3ccc(cc13)-c1cnn(C)c1O[C@@H](C)CN(C)C2 [Example 174] ... 127
C[C@H]1CN(C)Cc2nn3c(c2/C=C/c2n[nH]c4ccc(cc24)-c2cnn(C)c2O1)CN(CCS(C)(=O)=O)CC3 [Example 166] ... 12.8
Cc1c2c(nn1C1CCN(C)C1)OCCN(C)Cc1c(cnn1C)-c1ccc3[nH]nc(c3c1)/C=C/2 (stereo not shown) [Example 117] ... 20

[I] Cn1ncc2c1COCCOc1ccccc1/C=C/c1n[nH]c3ccc-2cc13 [Ex. 1]
[II] Cc1c2c(nn1C)/C=C/c1n[nH]c3ccc(cc13)-c1cnn(C)c1O[C@@H](C)CN(C)C2 [Example 126]
[III] Cc1nn([C@H]2CN(C)C[C@@H]2O)c2c1/C=C/c1n[nH]c3ccc(cc13)-c1cnn(C)c1CN(C)CCO2 (racemic) [Example 98]
[IV] CCN1Cc2c(c(C)nn2CCO)/C=C/c2n[nH]c3ccc(cc23)-c2cnn(C)c2O[C@@H](C)C1 [Example 133]
Enquiry: Rank the items in ascending order with respect to IC50. Reply format: the labels, ordered as requested.
Return: IV, II, III, I
(IV: 0.09 nM, II: 18.6 nM, III: 41.1 nM, I: 848 nM)

###

Biological target: EGFR L858R/T790M mutant (Homo sapiens (Human), UniProt P00533, L858R/T790M)
Sequence (P00533 25-1210 T790M/L858R): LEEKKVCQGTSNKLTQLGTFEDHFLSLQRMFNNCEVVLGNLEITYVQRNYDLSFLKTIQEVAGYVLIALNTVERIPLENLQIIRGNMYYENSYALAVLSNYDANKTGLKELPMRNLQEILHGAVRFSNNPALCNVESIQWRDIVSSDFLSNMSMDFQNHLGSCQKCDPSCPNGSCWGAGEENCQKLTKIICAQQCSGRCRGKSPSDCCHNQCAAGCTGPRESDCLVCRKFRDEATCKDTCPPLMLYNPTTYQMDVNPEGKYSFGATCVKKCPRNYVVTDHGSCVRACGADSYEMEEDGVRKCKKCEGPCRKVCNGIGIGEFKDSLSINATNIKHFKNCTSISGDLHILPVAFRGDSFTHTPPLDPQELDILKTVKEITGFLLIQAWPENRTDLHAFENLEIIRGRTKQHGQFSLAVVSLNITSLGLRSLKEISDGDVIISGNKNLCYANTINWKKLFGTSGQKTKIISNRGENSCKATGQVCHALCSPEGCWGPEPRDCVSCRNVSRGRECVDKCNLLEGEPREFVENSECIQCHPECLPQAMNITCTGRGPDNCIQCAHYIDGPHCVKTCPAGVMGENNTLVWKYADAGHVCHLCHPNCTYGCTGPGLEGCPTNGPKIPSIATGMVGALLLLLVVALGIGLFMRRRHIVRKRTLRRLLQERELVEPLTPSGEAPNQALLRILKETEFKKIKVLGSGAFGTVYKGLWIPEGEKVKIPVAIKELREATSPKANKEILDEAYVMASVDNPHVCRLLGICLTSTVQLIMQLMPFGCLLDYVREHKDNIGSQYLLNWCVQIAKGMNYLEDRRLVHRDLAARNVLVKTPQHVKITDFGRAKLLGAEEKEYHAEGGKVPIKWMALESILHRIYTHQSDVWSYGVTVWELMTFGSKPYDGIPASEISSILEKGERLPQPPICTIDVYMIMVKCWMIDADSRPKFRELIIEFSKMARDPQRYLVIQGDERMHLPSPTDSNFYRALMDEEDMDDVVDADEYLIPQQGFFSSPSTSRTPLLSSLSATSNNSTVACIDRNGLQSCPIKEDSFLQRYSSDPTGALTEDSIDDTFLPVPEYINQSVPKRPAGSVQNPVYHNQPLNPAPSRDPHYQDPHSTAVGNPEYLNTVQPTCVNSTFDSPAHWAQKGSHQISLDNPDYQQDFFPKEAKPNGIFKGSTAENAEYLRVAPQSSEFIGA
Assay: HotSpot radiometric kinase assay, EGFR L858R/T790M mutant
Conditions: 10 μM ATP
Readout Kind: IC50 (nM)

[1] CCOc1nn(CCO)c2c1/C=C/c1n[nH]c3ccc(cc13)-c1cnn(C)c1O[C@@H](C)CN(C)C2
[2] CCOc1nn(CCO)c2c1/C=C/c1n[nH]c3ccc(cc13)-c1cnn(C)c1O[C@H](C)CNC2
Enquiry: Which has the smaller recorded IC50, 1 or 2 ? Reply briefly: the label of your chosen item.
Return: 1

[1] CC(C)Oc1nn(CCO)c2c1/C=C/c1n[nH]c3ccc(cc13)-c1cnn(C)c1O[C@H](C)CN(C1CC1)C2
[2] CCOc1nn(C)c2c1/C=C/c1n[nH]c3ccc(cc13)-c1cnn(C)c1OC1CN(C2)C1
[3] CCOc1nn([C@@H](C)CO)c2c1/C=C/c1n[nH]c3cc(F)c(cc13)-c1cnn(C)c1O[C@H](C)CN(C(C)C)C2
[4] Cc1nn(CCO)c2c1/C=C/c1n[nH]c3cc(Cl)c(cc13)-c1cnn(C)c1O[C@@H](C)CN(C)C2
Enquiry: Rank the items in ascending order with respect to IC50. Reply format: the labels, ordered as requested.
Return: 1, 3, 2, 4
